Each entry below lists one item and its recorded pKd value.
target: Lsm1Δ56C-7 (Schizosaccharomyces pombe, UniProt P87173;O94408;Q9Y7M4;O14352;O42978;Q9UUI1;O74499 …); assay: fluorescence polarization; FP: 100 mM NaCl, 20 mM Tris pH 8.2 (final ~8), 10 mM MgCl2, 1 mM TCEP, 1 mM Na azide, 0.1 mg/mL each tRNA, BSA and heparin; temperature not stated; 1 nM RNA final; Hill fixed at 1; details: protein: recombinant; tags: as P2; copies: 1;1;1;1;1;1;1; label: 5'-FAM; single-stranded
pKd: −log10 of the molar value.
Measurement type: pKd

>>> val("UUUUUACCCCC (ssRNA)")
7.47
>>> val("CCCCCUUUUUA (ssRNA)")
7.89
